- protocol description: Kinetic solubility of the compound
- Format: physicochemical
readout name: Kinetic_solubility

Some solved entries appear below for comparison.
| chem smiles | readout name | value measured |
| --- | --- | --- |
| CN1CCN(C(=O)c2ccc(C3CCCCC3)cc2)CC1=O | Kinetic_solubility | Soluble |
| NS(=O)(=O)c1cccc(-c2ccc(C3CCCCC3)cc2)c1 | Kinetic_solubility | Soluble |
| O=C(Cc1cccnc1)Nc1ccc(C2CCCCC2)cc1 | Kinetic_solubility | < 1 µM |
| O=C(Nc1ccc(C2CCCCC2)cc1)c1cn[nH]c1 | Kinetic_solubility | < 1 µM |
| c1ncc(-c2ccc(C3CCCCC3)cc2)cn1 | Kinetic_solubility | Soluble |
| O=C(COCC(F)F)Nc1ccc(C2CCCCC2)cc1 | Kinetic_solubility | < 1 µM |
| CN1CCN(C(=O)c2ccc(C3CCCCC3)cc2)CC1 | Kinetic_solubility | Soluble |
| CN1CCC(c2ccc(-c3ccc(C4CCCCC4)cc3)cn2)CC1 | Kinetic_solubility | Soluble |
| O=C(CC1CCOCC1)Nc1ccc(C2CCCCC2)cc1 | Kinetic_solubility | < 1 µM |
| O=C(c1ccc(C2CCCCC2)cc1)N1CC(O)C1 | Kinetic_solubility | Soluble |

Could you now look at the following compound, please?
*Q* What does the data say about its Kinetic_solubility? Entry: O=C(Nc1ccc(C2CCCCC2)cc1)[C@H]1CC1(F)F
*A* < 1 µM

----------
- protocol description: Kinetic solubility of the compound
- Type: physicochemical
readout name: solubility kinetic (µM)
Give just the numeric value; µM need not be written.

*Q* What does the data say about its solubility kinetic? Entry: O=C(Nc1ccc([C@H]2[C@@H](F)[C@@H](F)C[C@@H](F)[C@H]2F)cc1)c1cn[nH]c1
*A* 136

----------
- protocol description: Permeability across apical to basolateral side in MDCK cells pgp knock out incubated up to 180 mins by LC_MS/MS analysis
- Assay type: ADME, cell-based, Canis lupus familiaris
- protocol conditions: dog, read-out: permeability
readout name: Papp A→B at 3 h (×10⁻⁶ cm/s)

Some solved entries appear below for comparison.
| chem smiles | units text | Papp A→B at 3 h |
| --- | --- | --- |
| CN(Cc1cccnc1)C(=O)c1ccc(C2CCCCC2)cc1 | ×10⁻⁶ cm/s | 12.1 |
| COCCC(=O)Nc1ccc(C2CCCCC2)cc1 | ×10⁻⁶ cm/s | 22.2 |
| O=C(NCCc1cccnc1)c1ccc(C2CCCCC2)cc1 | ×10⁻⁶ cm/s | 23 |
| O=C(Cn1ccnc1)Nc1ccc([C@H]2[C@@H](F)[C@@H](F)C[C@@H](F)[C@H]2F)cc1 | ×10⁻⁶ cm/s | 0.9 |
| O=C(NCCN1CCCC1=O)c1ccc(C2CCCCC2)cc1 | ×10⁻⁶ cm/s | 15.5 |
| CN(Cc1cccnc1)C(=O)c1ccc([C@H]2[C@@H](F)[C@@H](F)C[C@@H](F)[C@H]2F)cc1 | ×10⁻⁶ cm/s | 16.3 |
| O=C(Cn1ccnc1)Nc1ccc(C2CCCCC2)cc1 | ×10⁻⁶ cm/s | 11.1 |

[P] O=C(Cc1cccnc1)Nc1ccc([C@H]2[C@@H](F)[C@@H](F)C[C@@H](F)[C@H]2F)cc1
[Q] O=C(NCC1CCOCC1)c1ccc(C2CCCCC2)cc1
[R] O=C(NCCN1CCCC1=O)c1ccc([C@H]2[C@@H](F)[C@@H](F)C[C@@H](F)[C@H]2F)cc1
*Q* Rank descending by Papp A→B at 3 h. Write the labels out in the order the request specifies.
*A* Q, P, R

// provenance: ChEMBL document CHEMBL5131576
